Target: T1, corticotropin releasing factor 2 receptor
T1 sequence (Q13324 whole entry, species assumed, looked up): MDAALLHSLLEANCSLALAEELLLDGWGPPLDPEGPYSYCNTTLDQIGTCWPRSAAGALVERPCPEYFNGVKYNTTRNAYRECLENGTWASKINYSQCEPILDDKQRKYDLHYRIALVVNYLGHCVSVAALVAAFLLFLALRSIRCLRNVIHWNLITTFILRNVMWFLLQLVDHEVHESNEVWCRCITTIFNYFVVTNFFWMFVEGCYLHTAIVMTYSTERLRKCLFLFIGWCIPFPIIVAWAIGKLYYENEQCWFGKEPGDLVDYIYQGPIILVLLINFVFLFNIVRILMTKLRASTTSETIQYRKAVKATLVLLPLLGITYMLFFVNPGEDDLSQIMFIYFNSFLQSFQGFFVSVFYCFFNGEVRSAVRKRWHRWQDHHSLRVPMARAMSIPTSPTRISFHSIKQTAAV
Experiment: cell-based or functional assay
Ends that are not written are not given here.
measure: CRF2R EC50 (nM)
Your answer should be a plain number; it is taken to be in nM.

Recorded results for 3 binders are shown here.
binder: ZGPPISIDLPIFLLRKMIEIEKQEKEKQQAANNRLLLDTI (C-terminal amide) [SEQ ID NO 29]
measure: CRF2R EC50
obs.value: 16

binder: ZGPPISIDLPYTLLRKMIEIEKQEKEKQQAANNRLLLDTI (C-terminal amide) [SEQ ID NO 200]
measure: CRF2R EC50
obs.value: 8.8

binder: SQEPPISLDLPTGLLREVLEMTKADQLAQQAHSNRKLLDIA-NH2 [SEQ ID NO 98]
measure: CRF2R EC50
obs.value: 100

Now turn to the next binder.
Kindly note the recorded CRF2R EC50 for SQEPPISLDLTFHLLREVLEQARARAAREQATTNARILARV-NH2 [SEQ ID NO 157] , which is 42
